This collection of values is drawn from ChEMBL document CHEMBL1201862.

- System: DMS-114
- assay-notes: NCI tumour cell line growth inhibition, 48 h
Calls of active or inactive are those of the source. Cut-off read from the data, not from the text of the source: active = GI50 up to about 1.1 µM and inactive = higher.
The compounds listed here are annotated with their GI50.

compound	GI50
CC1C(O)C2(Oc3cc4c(c5c3[C@@H](CC5O)[C@H]2C)CCC2Cc3nc5c(nc3C[C@@]42C)CC2CCC3C4=C[C@H]6O[C@@]7(O[C@@](C)(CO)C[C@@H]7O)C(C)[C@@]6(O)[C@]4(C)[C@@H](O)CC3[C@]2(C)C5)OC1(C)C (stereo partly drawn)	104 nM (active)

Query :: Lookup: GI50 / DMS-114 / CC(=O)OCC1OC(n2cc(F)c(=O)[nH]c2=O)C(NC(=O)OCc2ccccc2)C(OC(C)=O)C1OC(C)=O (stereo not drawn)
Result :: > 100000 nM (inactive)

Query :: Lookup: GI50 / DMS-114 / CCC1CN2CCc3cc(OC)c(OC)cc3C2CC1CC1c2cc(OC)c(OC)cc2CCN1C(=O)CNC(=O)OC(C)(C)C (stereo not drawn)
Result :: 3800 nM (inactive)

Query :: Lookup: GI50 / DMS-114 / CN(C)CCCNc1ccc2nnn3c4ccc(O)cc4c(=O)c1c23
Result :: 9180 nM (inactive)

Query :: Lookup: GI50 / DMS-114 / [N-]=[N+]=CC(=O)OCC(N)C(=O)O (stereo not drawn)
Result :: 1590 nM (inactive)

Query :: Lookup: GI50 / DMS-114 / C=C(CCCCC)CN1CCCC1C(C)=O (stereo not drawn)
Result :: 15000 nM (inactive)

Query :: Lookup: GI50 / DMS-114 / C[N+](C)(Cc1ccc(NC(=O)CCCC(=O)ON2C(=O)CCC2=O)cc1)c1ccccc1
Result :: > 1000 nM (active)

Query :: Lookup: GI50 / DMS-114 / COc1cccc2c1C(=O)c1c(O)c3c(c(O)c1C2=O)C[C@@](O)(/C(C)=N/NC(=O)c1ccccc1)C[C@@H]3OC1CC(N)C(O)C(C)O1 (stereo partly drawn)
Result :: 202 nM (active)
